These data points were gathered from ChEMBL document CHEMBL1201861.

Tested on: HEC-1;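 also: growth inhibition of the cell line, read out with a cell viability assay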
Experiment: cells
Assay type: functional, cell-based, Homo sapiens
Conditions: Homo sapiens, HEC-1
Description: SANGER: Inhibition of human HEC-1 cell growth in a cell viability assay.
Below: a set of entries, each annotated with reported IC50.

{"COMPOUND": "CN(c1ncccc1CNc1nc(Nc2ccc3c(c2)CC(=O)N3)ncc1C(F)(F)F)S(C)(=O)=O", "IC50": "> 2.56 µM"}
{"COMPOUND": "CCOc1nc(NC(=O)Cc2cc(OC)ccc2OC)cc(N)c1C#N", "IC50": "> 10 µM"}
{"COMPOUND": "C=CCNC1=C2C[C@@H](C)C[C@H](OC)[C@H](O)[C@@H](C)/C=C(\\C)[C@H](OC(N)=O)[C@@H](OC)/C=C\\C=C(/C)C(=O)NC(=CC1=O)C2=O", "IC50": "0.0659 µM"}
{"COMPOUND": "CN(Cc1cnc2nc(N)nc(N)c2n1)c1ccc(C(=O)N[C@@H](CCC(=O)O)C(=O)O)cc1 [METHOTREXATE]", "IC50": "> 0.2 µM"}
{"COMPOUND": "COc1ccc(C2=N[C@@H](c3ccc(Cl)cc3)[C@@H](c3ccc(Cl)cc3)N2C(=O)N2CCNC(=O)C2)c(OC(C)C)c1", "IC50": "> 8 µM"}
{"COMPOUND": "C[C@]1(O)C[C@@H](c2nc(-c3ccc4ccc(-c5ccccc5)nc4c3)c3c(N)nccn32)C1", "IC50": "> 2.56 µM"}
{"COMPOUND": "CN(C)C/C=C/C(=O)Nc1cc2c(Nc3ccc(F)c(Cl)c3)ncnc2cc1O[C@H]1CCOC1", "IC50": "> 0.5 µM"}
